src = ChEMBL document CHEMBL6114958

The following compounds have recorded IC50 on Histone deacetylase 2 (Homo sapiens, UniProt Q92769).
Sequence (Q92769 whole entry): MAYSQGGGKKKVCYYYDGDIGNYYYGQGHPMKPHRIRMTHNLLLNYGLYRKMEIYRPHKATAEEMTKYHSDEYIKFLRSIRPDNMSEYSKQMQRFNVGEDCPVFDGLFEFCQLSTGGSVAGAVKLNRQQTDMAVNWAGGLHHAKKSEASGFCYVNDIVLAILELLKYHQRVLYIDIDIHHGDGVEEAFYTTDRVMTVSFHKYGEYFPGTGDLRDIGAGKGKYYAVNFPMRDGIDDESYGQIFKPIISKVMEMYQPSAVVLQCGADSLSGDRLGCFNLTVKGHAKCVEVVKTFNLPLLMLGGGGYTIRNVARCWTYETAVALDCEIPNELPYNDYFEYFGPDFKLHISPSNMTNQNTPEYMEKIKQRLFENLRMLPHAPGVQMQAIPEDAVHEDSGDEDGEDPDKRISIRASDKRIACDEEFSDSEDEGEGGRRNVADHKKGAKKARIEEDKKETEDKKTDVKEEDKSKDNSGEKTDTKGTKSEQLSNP
MEASURE_NAME: IC50 (nM)

>>> measured_result("CC(c1nc2c(cnn2C2CCCC2)c(=O)[nH]1)N1CC(Cc2ccc(C(=O)Nc3ccccc3N)cc2)C1 (configuration not stated)")
545
>>> measured_result("CC(c1nc2c(cnn2C2CCCC2)c(=O)[nH]1)C1CC(Cc2ccc(C(=O)NO)cc2)C1 (configuration not stated)")
3530

====

Molecular target: Amine oxidase [flavin-containing] A (Homo sapiens, UniProt P21397)
Sequence (P21397 whole entry): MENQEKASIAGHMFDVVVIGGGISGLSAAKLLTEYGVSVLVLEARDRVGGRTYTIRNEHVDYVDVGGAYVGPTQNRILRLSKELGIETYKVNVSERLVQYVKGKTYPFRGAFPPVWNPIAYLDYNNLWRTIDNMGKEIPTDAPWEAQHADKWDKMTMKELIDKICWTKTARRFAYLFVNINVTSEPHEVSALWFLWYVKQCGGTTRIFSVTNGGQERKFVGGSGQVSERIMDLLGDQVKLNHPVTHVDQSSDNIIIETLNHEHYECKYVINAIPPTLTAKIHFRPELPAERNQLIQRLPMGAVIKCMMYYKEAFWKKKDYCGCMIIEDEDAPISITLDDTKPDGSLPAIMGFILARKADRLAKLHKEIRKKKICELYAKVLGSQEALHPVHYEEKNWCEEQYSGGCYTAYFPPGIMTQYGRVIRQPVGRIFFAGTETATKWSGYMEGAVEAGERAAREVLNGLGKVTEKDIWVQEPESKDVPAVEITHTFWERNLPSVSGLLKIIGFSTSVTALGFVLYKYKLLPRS
Assay: Inhibition of recombinant human MAO-A assessed as fluorescence measured after 30 mins by Amplex Red reagent assay
Some compounds, each annotated with its measured IC50.
MEASURE_NAME: IC50 (µM)

>>> measured_result("C#CCNc1ccc(-c2cc(-c3ccc(OCCN4CCOCC4)cc3)nc(N)n2)cc1")
9.94
>>> measured_result("C#CCOc1ccc(-c2cc(-c3ccc(OCCN4CCOCC4)cc3)nc(N)n2)cc1")
0.018
